Target: human ether-à-go-go-related gene (hERG) potassium channel (human, UniProt Q12809);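 note: peak tail current of the secondary pulse compared with the same well before compound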
Sequence (Q12809 whole entry, looked up): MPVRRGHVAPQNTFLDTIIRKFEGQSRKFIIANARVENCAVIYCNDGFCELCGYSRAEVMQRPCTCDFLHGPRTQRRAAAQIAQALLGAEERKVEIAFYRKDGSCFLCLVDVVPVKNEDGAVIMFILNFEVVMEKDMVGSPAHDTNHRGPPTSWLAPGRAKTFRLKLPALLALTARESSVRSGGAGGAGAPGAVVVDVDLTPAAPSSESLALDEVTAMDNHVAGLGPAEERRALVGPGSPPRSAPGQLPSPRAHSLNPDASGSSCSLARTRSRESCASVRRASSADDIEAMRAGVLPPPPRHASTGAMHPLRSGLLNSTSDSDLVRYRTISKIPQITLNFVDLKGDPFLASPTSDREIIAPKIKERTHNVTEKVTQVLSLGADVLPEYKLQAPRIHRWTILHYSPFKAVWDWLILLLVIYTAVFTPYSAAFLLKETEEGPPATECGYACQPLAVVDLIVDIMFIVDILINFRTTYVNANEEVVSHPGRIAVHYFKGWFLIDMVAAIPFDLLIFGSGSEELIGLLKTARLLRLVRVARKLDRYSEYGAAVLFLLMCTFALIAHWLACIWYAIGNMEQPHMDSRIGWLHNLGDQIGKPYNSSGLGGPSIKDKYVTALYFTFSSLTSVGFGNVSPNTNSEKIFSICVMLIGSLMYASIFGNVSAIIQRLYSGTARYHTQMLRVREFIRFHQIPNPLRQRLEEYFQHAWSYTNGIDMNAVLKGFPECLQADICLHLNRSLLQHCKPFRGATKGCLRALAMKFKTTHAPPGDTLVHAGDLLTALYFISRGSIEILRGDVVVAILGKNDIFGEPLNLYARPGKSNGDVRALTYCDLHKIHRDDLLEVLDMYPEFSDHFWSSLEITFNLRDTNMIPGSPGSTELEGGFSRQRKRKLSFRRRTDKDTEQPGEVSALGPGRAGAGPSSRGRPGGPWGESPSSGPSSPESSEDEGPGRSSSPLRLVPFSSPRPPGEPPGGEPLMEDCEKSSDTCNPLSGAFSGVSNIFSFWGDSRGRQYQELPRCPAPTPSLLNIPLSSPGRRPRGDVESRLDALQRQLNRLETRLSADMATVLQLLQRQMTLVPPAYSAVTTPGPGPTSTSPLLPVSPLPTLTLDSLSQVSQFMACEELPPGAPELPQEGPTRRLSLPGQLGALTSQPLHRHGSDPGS
Assay: primary screen, population patch clamp on CHO cells stably expressing hERG; higher = less effect of the substance
Experimental: Briefly, Chinese hamster ovary (CHO) cells stably expressing the hERG channel were dislodged from tissue culture flasks and dispensed into PPC plates. […] During the recording, background leak currents were estimated by a 100 ms step to -80 mV from an initial holding potential of -70 mV and subtracted from the subsequent current measurement. The campaign was conducted in two phases using slight differences in recording protocol. […]
Hit rate of the full screen: of about 310,000 compounds, about 14,000 (4.5%) showed an effect of 50% or more. The effect is printed as a negative number. This is one part of a sample in which strong results are shown more often than they occur.
Kind request: treat 10% as inclusive, so hERG current change (%, negative = inhibition) at 10uM at 10% or higher is 1.0, anything lower is 0.0.

Does hERG current change (%, negative = inhibition) at 10uM meet or surpass 10% for Cc1cc(C)n2nc(C(=O)Nc3ccc4c(c3)OCO4)nc2n1 ?
0.0

Does hERG current change (%, negative = inhibition) at 10uM meet or surpass 10% for O=c1[nH]c(CN2CCN(C/C=C/c3ccccc3)CC2)nc2cc(Cl)ccc12 ?
0.0

Does hERG current change (%, negative = inhibition) at 10uM meet or surpass 10% for CCc1ccc(NC(=O)Nn2cnnc2)cc1 ?
1.0

Does hERG current change (%, negative = inhibition) at 10uM meet or surpass 10% for COc1ccc(N2CCN(Cc3nc4cc(Cl)ccc4c(=O)[nH]3)CC2)cc1 ?
1.0

Does hERG current change (%, negative = inhibition) at 10uM meet or surpass 10% for O=C(NCCN1CCOCC1)c1cccc(S(=O)(=O)N2CCCC2)c1 ?
0.0

Does hERG current change (%, negative = inhibition) at 10uM meet or surpass 10% for Cc1ccc(NS(=O)(=O)c2ccc(-c3csc(C)n3)s2)c(C)c1 ?
1.0

Does hERG current change (%, negative = inhibition) at 10uM meet or surpass 10% for Cn1nnnc1SCC(=O)NCc1ccc2c(c1)OCO2 ?
1.0

Does hERG current change (%, negative = inhibition) at 10uM meet or surpass 10% for O=C(NCCCN1CCCC1=O)c1cc(S(=O)(=O)N2CCOCC2)ccc1Cl ?
1.0

---

Molecular target: human ether-à-go-go-related gene (hERG) potassium channel (human, UniProt Q12809);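 note: peak tail current of the secondary pulse compared with the same well before compound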
Assay: primary screen, population patch clamp on CHO cells stably expressing hERG; higher = less effect of the substance
Protocol: Briefly, Chinese hamster ovary (CHO) cells stably expressing the hERG channel were dislodged from tissue culture flasks and dispensed into PPC plates. […] During the recording, background leak currents were estimated by a 100 ms step to -80 mV from an initial holding potential of -70 mV and subtracted from the subsequent current measurement. The campaign was conducted in two phases using slight differences in recording protocol. […]
Hit rate of the full screen: of about 310,000 compounds, about 14,000 (4.5%) showed an effect of 50% or more. The effect is printed as a negative number. The list comes from a sample in which strong results are over-represented; it also holds close analogues and randomly drawn compounds.
PROPERTY: hERG current change (%, negative = inhibition) at 10uM (%)
Note: unit % is implicit; provide only the numeric part.

# hERG current change (%, negative = inhibition) at 10uM lookup, item CC(C)C(=O)NNC(=O)c1csc(CS(=O)(=O)c2ccc(Cl)cc2)n1
-1.62

# hERG current change (%, negative = inhibition) at 10uM lookup, item O=C(O)C[C@H]1c2cc(C(F)(F)F)ccc2S(=O)(=O)N1C1CCCCC1
30.3

# hERG current change (%, negative = inhibition) at 10uM lookup, item CCOC(=O)C1=C(C)N=C2SCCC(=O)N2C1c1cccs1 (stereo not drawn)
-10.2

# hERG current change (%, negative = inhibition) at 10uM lookup, item CCc1ccc2[nH]c(=O)c(CN(Cc3ccccc3)C(=O)Nc3ccccc3OC)cc2c1
4.2

# hERG current change (%, negative = inhibition) at 10uM lookup, item CN(C)c1nc(N)c([N+](=O)[O-])c(NCC2CCCO2)n1 (stereo not drawn)
7.07

# hERG current change (%, negative = inhibition) at 10uM lookup, item CCc1ccc2[nH]c(=O)c(CN(CCCO)C(=O)NCc3ccccc3)cc2c1
-13

# hERG current change (%, negative = inhibition) at 10uM lookup, item CCc1ccc2[nH]c(=O)c(CN(Cc3ccccc3OC)C(=O)Nc3ccccc3OC)cc2c1
3.47

# hERG current change (%, negative = inhibition) at 10uM lookup, item CCOc1cc(/C=C2\SC(=S)N(NS(=O)(=O)c3ccccc3)C2=O)ccc1O
8.33

# hERG current change (%, negative = inhibition) at 10uM lookup, item CCc1ccc2[nH]c(=O)c(CN(CCO)C(=O)NCc3ccccc3)cc2c1
3.64
